- TEST_PROTOCOL: protein stability index of a GFP-peptide fusion (GPS, HEK-293T) (PSI 1-6); higher = more stable;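 also: 24-mer peptide tiles fused after GFP, lentivirally expressed, FACS-sorted into six equal bins by GFP/DsRed ratio, decoded by Illumina sequencing, PSI is the read-weighted mean bin number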
- MEASUREMENT_CONDITIONS: treatment: DMSO; c terminus: a fixed tail appended
Label scheme, based on protein stability index: Low: < 3; Medium: ≥ 3 and < 5; High: ≥ 5

{"RESIDUE_CODES": "TSIVQAAAGGVPGGGSNNGKTPVC [PDLIM7]", "ASSIGNED_CLASS": "Medium"}

Challenge: Which class holds QVEGLTVQYLGQAPELLGGAEPGT [ADAMTS4] ?
Response given: Medium

Challenge: Please let me know in which category the item TWLKGKFTELRLLLDEEEALAKKF [TRIM14] belongs.
Response given: Low

Challenge: Sort IYAHRVILSACSPYFRAMFTGELA [KLHL20] into one of the categories.
Response given: Medium

Challenge: Which band does YDPWNAPEGIQKVAKCLIGVNYPK [CRY1] fall in?
Response given: Low

Challenge: For the record GEEGAPGKWQQQGDLQDTKENREE [CHGB] , report the class its protein stability index corresponds to.
Response given: High

Challenge: Bin? DKDKSDDRMARPSGRSGHNTRGTG [CSNK1G3]
Response given: High

Challenge: Looking at SERTDTAADGETTATEELEKTQDD [EPB41L3] , which class would you pick?
Response given: High

Data origin, for the record: the supplement of paper PMC10567573
